test system: gastric acid secretion (histamine-stimulated); assay: Effects on Gastric Acid Secretion of Anesthesia Fistula Rat by Histamine; type: in vivo, rat (male SD); conditions: 30 mg/kg, histamine infusion, acid output 1 to 4 hours after administration
Please enter 1 where Gastric acid secretion inhibition effect (%) is greater than or equal to 70%, and -1 where it is lower.

query: Tell me whether Gastric acid secretion inhibition effect (%) is at least 70% here: CN/C(=N/CCSCc1nc[nH]c1C)NC#N [Cimetidine, reference compound]
result: -1

query: Tell me whether Gastric acid secretion inhibition effect (%) is at least 70% here: O=C(CS(=O)(=O)CCO)NCCCOc1cccc(CN2CCCCC2)c1 [Example 7]
result: -1

query: Tell me whether Gastric acid secretion inhibition effect (%) is at least 70% here: CC(=O)OCCSCC(=O)NCCCOc1cccc(CN2CCCC2)c1 [Example 12]
result: -1

query: Tell me whether Gastric acid secretion inhibition effect (%) is at least 70% here: O=C(CSCCO)NCCCOc1cccc(CN2CCCCC2)c1 [Example 2]
result: 1

Reference source for all entries: patent US5192774A
